Biological target: NAD-dependent protein deacetylase sirtuin-1 (Homo sapiens) (UniProt Q96EB6)
Sequence (whole entry): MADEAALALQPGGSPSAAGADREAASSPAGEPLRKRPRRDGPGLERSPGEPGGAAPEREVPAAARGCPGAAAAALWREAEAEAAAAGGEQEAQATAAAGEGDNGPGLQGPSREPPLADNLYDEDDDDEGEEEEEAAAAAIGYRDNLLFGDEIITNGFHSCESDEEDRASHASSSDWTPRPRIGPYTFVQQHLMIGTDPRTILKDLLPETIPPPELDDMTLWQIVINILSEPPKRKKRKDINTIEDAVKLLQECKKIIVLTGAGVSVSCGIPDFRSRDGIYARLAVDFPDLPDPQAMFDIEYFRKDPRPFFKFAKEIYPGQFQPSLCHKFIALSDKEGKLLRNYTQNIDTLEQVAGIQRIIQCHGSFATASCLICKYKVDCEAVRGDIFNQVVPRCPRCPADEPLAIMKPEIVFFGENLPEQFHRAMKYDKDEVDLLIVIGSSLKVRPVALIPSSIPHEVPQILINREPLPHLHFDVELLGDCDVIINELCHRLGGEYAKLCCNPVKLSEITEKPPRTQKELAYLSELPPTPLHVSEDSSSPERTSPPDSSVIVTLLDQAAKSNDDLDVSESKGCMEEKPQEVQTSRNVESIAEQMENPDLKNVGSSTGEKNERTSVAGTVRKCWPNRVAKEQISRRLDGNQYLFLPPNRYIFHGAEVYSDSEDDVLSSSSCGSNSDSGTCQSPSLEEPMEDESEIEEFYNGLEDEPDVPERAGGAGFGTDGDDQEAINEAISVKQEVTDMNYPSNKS
Test: Inhibition of SirT1 in human ARN8 cells assessed as p53 activation at 5 uM by beta-galactosidase reporter gene assay
Format: cell-based
Activity calls are given as the source filed them. The calls are words filed in the database; no cut-off is given here.
Readout label: inhibition

Consider the reported inhibition for these molecules:
[
  {
    "Structure string": "CN(C)CCCCC(=O)Nc1ccc(NC(=O)NC(=O)c2ccc(C(C)(C)C)cc2)cc1",
    "inhibition": "Active"
  },
  {
    "Structure string": "COc1cccc(C(=O)NC(=S)Nc2ccc(NC(=O)CCCCN(C)C)cc2)c1",
    "inhibition": "inactive"
  },
  {
    "Structure string": "CN(C)CCCCC(=O)Nc1ccc(NC(=S)NC(=O)c2cccc(Br)c2)cc1",
    "inhibition": "inactive"
  },
  {
    "Structure string": "CN(C)CCCCC(=O)Nc1ccc(NC(=S)NC(=O)c2ccc(Cl)c(Cl)c2)cc1",
    "inhibition": "inactive"
  },
  {
    "Structure string": "CN(C)CCCCC(=O)Nc1ccc(NC(=S)NC(=O)c2ccccc2Cl)cc1",
    "inhibition": "inactive"
  }
]

Assign inhibition to the following record: COc1ccc(C(=O)NC(=S)Nc2ccc(NC(=O)CCCCN(C)C)cc2)cc1 inactive

Assign inhibition to the following record: CC(C)c1ccc(C(=O)NC(=S)Nc2ccc(NC(=O)CCCCN(C)C)cc2)cc1 Active

Assign inhibition to the following record: CN(C)CCCCC(=O)Nc1ccc(NC(=S)NC(=O)c2ccccc2)cc1 inactive

Assign inhibition to the following record: CN(C)CCCCC(=O)Nc1ccc(NC(=S)NC(=O)c2ccc(Cl)cc2)cc1 inactive

---

Molecular target: NAD-dependent protein deacetylase sirtuin-1 (Homo sapiens) (UniProt Q96EB6)
Experiment: Inhibition of SirT1 assessed as increase in p53 expression in human MCF7 cells at 5 uM after 6 hrs by Western blotting
Type: cell-based
The source made the active and inactive calls. The calls are words filed in the database; no cut-off is given here.
Readout label: inhibition

Consider the reported inhibition for these molecules:
[
  {
    "Structure string": "CN(C)CCCCC(=O)Nc1ccc(N(C)C(=S)NC(=O)c2ccc(C(C)(C)C)cc2)cc1",
    "inhibition": "inactive"
  },
  {
    "Structure string": "CN(C)CCCCCC(=O)Nc1ccc(NC(=S)NC(=O)c2ccc(C(C)(C)C)cc2)cc1.Cl",
    "inhibition": "Active"
  },
  {
    "Structure string": "CN(C)CCCCCCCC(=O)Nc1ccc(NC(=S)NC(=O)c2ccc(C(C)(C)C)cc2)cc1.Cl",
    "inhibition": "Active"
  },
  {
    "Structure string": "CN(C)CCOCCOCCOCCOCCOCC(=O)Nc1ccc(NC(=S)NC(=O)c2ccc(C(C)(C)C)cc2)cc1.Cl",
    "inhibition": "inactive"
  },
  {
    "Structure string": "CN(C)CCCC(=O)Nc1ccc(NC(=S)NC(=O)c2ccc(C(C)(C)C)cc2)cc1.Cl",
    "inhibition": "Active"
  }
]

Assign inhibition to the following record: CC(=O)Nc1ccc(NC(=S)NC(=O)c2ccc(C(C)(C)C)cc2)cc1 Active

Assign inhibition to the following record: CN(C)CCCCC(=O)Nc1ccc(NC(=S)NC(=O)c2ccc(C(C)(C)C)cc2)cc1.Cl Active

---

Molecular target: NAD-dependent protein deacetylase sirtuin-2 (Homo sapiens)
Sequence (Q8IXJ6 whole entry): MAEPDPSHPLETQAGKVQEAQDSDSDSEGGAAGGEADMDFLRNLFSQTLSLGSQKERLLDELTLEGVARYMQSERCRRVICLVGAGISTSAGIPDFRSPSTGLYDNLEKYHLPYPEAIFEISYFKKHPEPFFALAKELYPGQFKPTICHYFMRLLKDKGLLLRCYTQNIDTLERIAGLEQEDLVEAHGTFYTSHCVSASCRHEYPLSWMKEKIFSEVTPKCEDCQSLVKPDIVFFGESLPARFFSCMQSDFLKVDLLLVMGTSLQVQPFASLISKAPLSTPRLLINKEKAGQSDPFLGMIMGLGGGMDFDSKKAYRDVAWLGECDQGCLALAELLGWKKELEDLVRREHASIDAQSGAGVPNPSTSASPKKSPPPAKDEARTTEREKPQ
Assay: Inhibition of recombinant human SitT2 by Fluor de Lys fluorescence assay
Readout label: IC50 (µM)
Report the value in µM with no unit label.

Assign IC50 to the following record: CN(C)CCCCC(=O)Nc1ccc(NC(=S)NC(=O)c2ccc(Br)cc2)cc1 55

Assign IC50 to the following record: COc1ccc(C(=O)NC(=S)Nc2ccc(NC(=O)CCCCN(C)C)cc2)cc1 50.6

---

Molecular target: UniProt Q96EB6
Assay: Inhibition of SirT1 assessed as increase in p53 expression in human MCF7 cells at 2 uM after 6 hrs by Western blotting
Type: cell-based
Calls of active or inactive are those of the source. The calls are words filed in the database; no cut-off is given here.
Please answer using one outcome listed in active, inactive

Check the results log: what was the call for CC(=O)Nc1ccc(NC(=S)NC(=O)c2ccc(C(C)(C)C)cc2)cc1 ? active

Check the results log: what was the call for CN(C)CCCCC(=O)Nc1ccc(N(C)C(=S)NC(=O)c2ccc(C(C)(C)C)cc2)cc1 ? inactive

Check the results log: what was the call for CN(C)CCCCCC(=O)Nc1ccc(NC(=S)NC(=O)c2ccc(C(C)(C)C)cc2)cc1.Cl ? active

Check the results log: what was the call for CN(C)CCCC(=O)Nc1ccc(NC(=S)NC(=O)c2ccc(C(C)(C)C)cc2)cc1.Cl ? inactive

Check the results log: what was the call for CN(C)CCCCCCCC(=O)Nc1ccc(NC(=S)NC(=O)c2ccc(C(C)(C)C)cc2)cc1.Cl ? active

Check the results log: what was the call for CN(C)CCCCC(=O)Nc1ccc(NC(=S)NC(=O)c2ccc(C(C)(C)C)cc2)cc1.Cl ? active

Check the results log: what was the call for CN(C)CCOCCOCCOCCOCCOCC(=O)Nc1ccc(NC(=S)NC(=O)c2ccc(C(C)(C)C)cc2)cc1.Cl ? inactive

---

Molecular target: NAD-dependent protein deacetylase sirtuin-1 (Homo sapiens) (UniProt Q96EB6)
Sequence (whole entry): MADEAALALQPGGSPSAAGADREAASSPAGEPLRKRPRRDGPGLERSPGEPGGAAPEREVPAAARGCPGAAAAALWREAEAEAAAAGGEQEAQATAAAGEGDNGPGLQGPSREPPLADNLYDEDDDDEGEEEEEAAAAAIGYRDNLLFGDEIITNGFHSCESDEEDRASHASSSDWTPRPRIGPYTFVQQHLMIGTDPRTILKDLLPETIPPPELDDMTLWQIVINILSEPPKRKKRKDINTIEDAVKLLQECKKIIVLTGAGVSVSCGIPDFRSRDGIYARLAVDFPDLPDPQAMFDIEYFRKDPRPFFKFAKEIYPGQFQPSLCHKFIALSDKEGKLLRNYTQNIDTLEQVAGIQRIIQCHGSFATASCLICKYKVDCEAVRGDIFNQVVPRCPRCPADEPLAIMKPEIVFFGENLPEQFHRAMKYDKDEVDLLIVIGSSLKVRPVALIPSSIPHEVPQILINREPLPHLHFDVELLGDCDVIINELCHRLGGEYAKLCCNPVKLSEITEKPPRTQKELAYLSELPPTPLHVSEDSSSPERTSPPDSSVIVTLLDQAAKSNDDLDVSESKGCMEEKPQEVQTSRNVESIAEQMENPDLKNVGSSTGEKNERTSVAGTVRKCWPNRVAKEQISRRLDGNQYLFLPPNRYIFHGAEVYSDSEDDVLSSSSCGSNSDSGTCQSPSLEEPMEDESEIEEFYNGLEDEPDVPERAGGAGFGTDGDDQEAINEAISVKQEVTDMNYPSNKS
Assay: Inhibition of SirT1 in human ARN8 cells assessed as p53 activation at 20 uM by beta-galactosidase reporter gene assay relative to control
Type: cell-based
Readout label: fold change (FC)
Give the figure only, with no unit attached.

Assign fold change (FC) to the following record: CN(C)CCCCC(=O)Nc1ccc(NC(=S)NC(=O)c2ccc(Cl)c(Cl)c2)cc1 0.97

Assign fold change (FC) to the following record: Cc1cccc(C(=O)NC(=S)Nc2ccc(NC(=O)CCCCN(C)C)cc2)c1 0.89

Assign fold change (FC) to the following record: CN(C)CCCCC(=O)Nc1ccc(NC(=S)NC(=O)c2cccc(Cl)c2)cc1 1

Assign fold change (FC) to the following record: COc1ccc(C(=O)NC(=S)Nc2ccc(NC(=O)CCCCN(C)C)cc2)cc1 1.12

Assign fold change (FC) to the following record: CN(C)CCCCC(=O)Nc1ccc(NC(=S)NC(=O)c2ccc(Cl)cc2)cc1 1.01
